target: Human immunodeficiency virus type 1 integrase (Human immunodeficiency virus 1, UniProt Q7ZJM1); assay: Inhibition of full-length recombinant HIV1 integrase
Sequence (Q7ZJM1 whole entry): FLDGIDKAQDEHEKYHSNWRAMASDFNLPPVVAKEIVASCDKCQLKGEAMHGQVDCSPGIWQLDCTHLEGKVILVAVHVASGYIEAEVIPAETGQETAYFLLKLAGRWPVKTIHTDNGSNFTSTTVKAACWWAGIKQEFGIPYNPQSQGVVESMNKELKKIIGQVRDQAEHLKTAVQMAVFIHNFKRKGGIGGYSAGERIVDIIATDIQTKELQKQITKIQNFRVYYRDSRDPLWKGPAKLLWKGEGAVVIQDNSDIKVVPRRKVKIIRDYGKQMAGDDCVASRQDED
Value Type: IC50 (µM)

Worked examples, 4 compounds total:
compound="[N-]=[N+]=[N-] [SODIUM AZIDE]" value_type=IC50 readout_unit=µM result_number=1.2
compound=O=C(/C=C/c1ccc(O)c(O)c1)c1ccc(NC(=O)c2ccc(F)c(F)c2)cc1 value_type=IC50 readout_unit=µM result_number=28.5
compound=O=C(/C=C/c1ccc(O)c(O)c1)c1ccc(NC(=O)c2ccccc2)cc1 value_type=IC50 readout_unit=µM result_number=50.2
compound=O=C(Cc1cccs1)Nc1ccc(C(=O)/C=C/c2ccc(O)c(O)c2)cc1 value_type=IC50 readout_unit=µM result_number=44.6

[1] O=C(/C=C/c1ccc(O)c(O)c1)c1ccc(NC(=O)C23C[C@H]4C[C@@H](C2)C[C@@H](C3)C4)cc1
[2] COc1ccc(C(=O)Nc2ccc(C(=O)/C=C/c3ccc(O)c(O)c3)cc2)cc1
(Q) # min-compare on IC50 between 1 and 2 // return label of chosen record
(A) 2
(2: 25.2 µM, 1: 36.8 µM)

###

In this section we review reported CC50 at 48 h values for a set of compounds.
experiment: Cytotoxicity against human CEM-GFP cells after 48 hrs by MTT assay; assay type: cell-based, CCRF-CEM
I only need the number, in µM, no unit after it.

compound=O=C(/C=C/c1ccc(O)c(O)c1)c1ccc(NC(=O)c2ccc(F)c(F)c2)cc1 result_number=15.7
compound=COc1ccc(C(=O)Nc2ccc(C(=O)/C=C/c3ccc(O)c(O)c3)cc2)cc1 result_number=32.3
compound=O=C(/C=C/c1ccc(O)c(O)c1)c1ccc(NC(=O)C23C[C@H]4C[C@@H](C2)C[C@@H](C3)C4)cc1 result_number=13.5
compound=O=C(/C=C/c1ccc(O)c(O)c1)c1ccc(NC(=O)c2ccccc2)cc1 result_number=20.3
compound="Cc1cn([C@H]2C[C@H](N=[N+]=[N-])[C@@H](CO)O2)c(=O)[nH]c1=O [ZIDOVUDINE]" result_number=24.1

Below: the item to evaluate.
(Q) Note CC50 at 48 h for the compound shown: `O=C(Cc1cccs1)Nc1ccc(C(=O)/C=C/c2ccc(O)c(O)c2)cc1`
(A) 51.4

###

biological target: Human immunodeficiency virus type 1 integrase (Human immunodeficiency virus 1); test: Inhibition of full-length recombinant HIV1 integrase at 20 ug/ml
Value Type: inhibition (%)

smiles_text=O=C(/C=C/c1ccc(O)c(O)c1)c1ccc(NC(=O)C23C[C@H]4C[C@@H](C2)C[C@@H](C3)C4)cc1 value_type=inhibition result_number=67.7
smiles_text=O=C(/C=C/c1ccc(O)c(O)c1)c1ccc(NC(=O)c2ccccc2)cc1 value_type=inhibition result_number=56
smiles_text=O=C(/C=C/c1ccc(O)c(O)c1)c1ccc(NC(=O)c2ccc(F)c(F)c2)cc1 value_type=inhibition result_number=74
smiles_text=O=C(Cc1cccs1)Nc1ccc(C(=O)/C=C/c2ccc(O)c(O)c2)cc1 value_type=inhibition result_number=66.5
smiles_text=COc1ccc(C(=O)Nc2ccc(C(=O)/C=C/c3ccc(O)c(O)c3)cc2)cc1 value_type=inhibition result_number=66.8
